Data provenance: ChEMBL document CHEMBL1201862

Test system: TK-10
run_description: NCI tumour cell line growth inhibition, 48 h
Calls of active or inactive are those of the source. Cut-off read from the data, not from the text of the source: active = GI50 up to about 1.1 µM and inactive = higher.
Write down one outcome, taken from 1 (active), -1 (inactive)

Example entries begin here.
{"compound": "CC(=O)NC1C(OCc2ccccc2)OC(CO)C(O)C1OCC(=O)NC(C)C(=O)NC(CCC(=O)NCCCCCC(=O)Nc1ccc2c(c1)CN1C(=O)c3ccccc3C1=N2)C(N)=O (centres undefined)", "label": -1}
{"compound": "COC(=O)C1(CCC(=O)N(C)c2ccccc2)NNC2C(=O)N(c3ccccc3)C(=O)C21 (centres undefined)", "label": -1}
{"compound": "c1ccc(CSSSCc2ccccc2)cc1 [DIBENZYL TRISULFIDE]", "label": -1}
{"compound": "CC(C)C(C/C=C1/CC(CO)(COC(=O)C2CCCCC2)OC1=O)C(C)C (centres undefined)", "label": -1}
{"compound": "CN1CCN(c2ccc3[nH]c(-c4ccc5[nH]c(CCCc6ccc(N(CCCl)CCCl)cc6)nc5c4)nc3c2)CC1", "label": -1}

Identify the outcome logged in this assay for the compound shown: c1ccc(CSc2nnc3c4ccccc4c4ccccc4c3n2)cc1
-1

Tell me the assay call for CC1CN1P1(N2CC2C)=NP(N2CC2C)(N2CC2C)=NP(N2CC2C)(N2CC2C)=N1 (centres undefined) please.
-1

GET /call?item= COc1ccc(/N=N/C(=N\c2ccc(Cl)cc2)c2ccc(N(CCC#N)CCC#N)cc2)cc1 returns the recorded outcome of this test.
-1

Identify the outcome logged in this assay for the compound shown: O=c1cnn(C2OC(C(O)CO)C(O)C2O)c(=O)[nH]1 (centres undefined)
-1
